- assay target: phospholipase C obtained from human thrombocytes
- assay text: In vitro test to determine the inhibition of phospholipase C obtained from human thrombocytes
- conditions: under the described test conditions
Where a name gives a salt, the structure may show the parent alone.
recorded metric: pIC50
Keep it numeric: pIC50 is minus log10 of the concentration in mol/L.

INPUT: Quickly give me recorded pIC50 for CCN(CC)CCCC(C)Nc1c2ccc(Cl)cc2nc2ccc(OC)cc12 (stereo not shown) [MEPACRINE, quinacrin hydrochloride]
OUTPUT: 4.70

Data origin, for the record: patent US5149717A
